# Lookup of reported fold change of affinity keyed by entry
Molecular target: T1, Human CD3eg linker (human)
T1 construct: single-chain construct; also called recombinant human CD3
T1 chain: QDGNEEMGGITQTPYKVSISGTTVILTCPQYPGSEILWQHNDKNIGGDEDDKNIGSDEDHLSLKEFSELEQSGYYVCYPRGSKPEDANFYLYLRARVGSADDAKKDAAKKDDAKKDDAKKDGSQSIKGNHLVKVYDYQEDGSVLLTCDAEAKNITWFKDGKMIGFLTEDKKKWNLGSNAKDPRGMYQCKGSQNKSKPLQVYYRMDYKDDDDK
Assay: SPR, vs unmutated H183/L072
# number only, unit fold dropped from output

Below, each entry is followed by its recorded fold change of affinity result.
# binder, fold change of affinity (fold)
measured = [
    ("dBBDu183H P61R/dBBDu072L (antibody, name in Kabat numbering, V domains shown) VH: QVQLVESGGGLVQPGRSLRLSCAASGFTFSNAWMHWVRQAPGKGLEWVAQIKDKGNAYAAYYARSVKGRFTISRDDSKNSIYLQMNSLKTEDTAVYYCHYVHYASASTVLPAFGVDAWGQGTTVTVSS VL: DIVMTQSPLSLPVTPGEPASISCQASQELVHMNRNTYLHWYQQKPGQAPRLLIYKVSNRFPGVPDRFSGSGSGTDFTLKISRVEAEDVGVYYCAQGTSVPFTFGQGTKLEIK", 1.6),
    ("dBBDu183H G100hT/dBBDu072L (antibody, name in Kabat numbering, V domains shown) VH: QVQLVESGGGLVQPGRSLRLSCAASGFTFSNAWMHWVRQAPGKGLEWVAQIKDKGNAYAAYYAPSVKGRFTISRDDSKNSIYLQMNSLKTEDTAVYYCHYVHYASASTVLPAFTVDAWGQGTTVTVSS VL: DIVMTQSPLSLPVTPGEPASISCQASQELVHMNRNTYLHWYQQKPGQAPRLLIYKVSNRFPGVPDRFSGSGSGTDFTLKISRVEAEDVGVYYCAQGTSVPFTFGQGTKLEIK", 2.3),
    ("dBBDu183H A100fF/dBBDu072L (antibody, name in Kabat numbering, V domains shown) VH: QVQLVESGGGLVQPGRSLRLSCAASGFTFSNAWMHWVRQAPGKGLEWVAQIKDKGNAYAAYYAPSVKGRFTISRDDSKNSIYLQMNSLKTEDTAVYYCHYVHYASASTVLPFFGVDAWGQGTTVTVSS VL: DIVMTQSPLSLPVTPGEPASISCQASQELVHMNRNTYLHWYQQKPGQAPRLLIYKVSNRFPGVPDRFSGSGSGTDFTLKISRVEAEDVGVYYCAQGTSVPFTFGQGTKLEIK", 1.1),
    ("dBBDu183H S100aT/dBBDu072L (antibody, name in Kabat numbering, V domains shown) VH: QVQLVESGGGLVQPGRSLRLSCAASGFTFSNAWMHWVRQAPGKGLEWVAQIKDKGNAYAAYYAPSVKGRFTISRDDSKNSIYLQMNSLKTEDTAVYYCHYVHYASATTVLPAFGVDAWGQGTTVTVSS VL: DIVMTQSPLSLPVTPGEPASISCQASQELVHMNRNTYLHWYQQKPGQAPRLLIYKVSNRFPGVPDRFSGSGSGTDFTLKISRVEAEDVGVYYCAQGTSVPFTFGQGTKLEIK", 0.9),
]

Next, consider the following binder.
Value lookup for fold change of affinity; key = dBBDu183H V100iQ/dBBDu072L (antibody, name in Kabat numbering, V domains shown) VH: QVQLVESGGGLVQPGRSLRLSCAASGFTFSNAWMHWVRQAPGKGLEWVAQIKDKGNAYAAYYAPSVKGRFTISRDDSKNSIYLQMNSLKTEDTAVYYCHYVHYASASTVLPAFGQDAWGQGTTVTVSS VL: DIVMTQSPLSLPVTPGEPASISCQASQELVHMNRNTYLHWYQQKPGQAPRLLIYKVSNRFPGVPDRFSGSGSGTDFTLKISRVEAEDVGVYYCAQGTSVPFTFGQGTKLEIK
3.6

Origin of measurements: patent US20210388087A1
